- Assay Comment: Acid dissociation constants by standard titration method
- Type: physicochemical
- Experimental Setup: sodium carboxylate, read-out: acid dissociation constant (pKa)
Where a name gives a salt, the structure may show the parent alone.
Recorded Metric: pKa

Q: Name the recorded pKa of the compound listed here: CC(C)(N)CNCC(=O)O [Example 1, (Sodium Salt)]
A: 6.1

----------
- Assay Comment: Acid dissociation constants by standard titration method
- Format: physicochemical
- Experimental Setup: primary amine, read-out: acid dissociation constant (pKa)
Where a name gives a salt, the structure may show the parent alone.
Recorded Metric: pKa
Just the number.

Q: Name the recorded pKa of the compound listed here: CC(C)(N)CNCC(=O)O [Example 1, (Sodium Salt)]
A: 9.9
